Data origin: patent US9884839B2

experiment: in vitro; details: human, pooled human liver S9 fraction
attributeMeasured: half-life at 1 µM (min)
Please state the figure in min; there is no need to write the unit.

// half-life at 1 µM lookup, molecule = O=C(c1ccc(-c2ccc(O)cc2)s1)c1cc(F)c(F)c(O)c1F , result: 27.4

// half-life at 1 µM lookup, molecule = Cc1cc(-c2ccc(C(=O)c3c(F)ccc(O)c3F)s2)cc(C)c1O , result: 2.6

// half-life at 1 µM lookup, molecule = O=C(c1ccc(-c2cccc(Cl)c2)s1)c1c(F)ccc(O)c1F , result: 4.3

// half-life at 1 µM lookup, molecule = COc1c(Cl)cc(-c2ccc(C(=O)c3cc(F)c(F)c(O)c3F)s2)cc1Cl , result: 15

// half-life at 1 µM lookup, molecule = COc1c(Cl)cc(-c2ccc(C(=O)c3c(F)ccc(O)c3F)s2)cc1Cl , result: 18.1

// half-life at 1 µM lookup, molecule = Cc1cc(-c2ccc(C(=O)c3cc(F)c(F)c(O)c3F)s2)cc(C)c1O , result: 38

// half-life at 1 µM lookup, molecule = O=C(c1ccc(-c2cc(Cl)c(O)c(Cl)c2)s1)c1c(F)ccc(O)c1F , result: 129

// half-life at 1 µM lookup, molecule = Cc1cc(-c2ccc(C(=O)c3cccc(O)c3Cl)s2)cc(C)c1O , result: 22

// half-life at 1 µM lookup, molecule = CS(=O)(=O)Nc1cccc(-c2ccc(C(=O)c3cc(F)c(F)c(O)c3F)s2)c1 , result: 25

// half-life at 1 µM lookup, molecule = Cc1cc(-c2ccc(C(=O)c3cccc(O)c3)s2)ccc1O [Compound F1, reference compound] , result: 3.6

// half-life at 1 µM lookup, molecule = COc1c(C)cc(-c2ccc(C(=O)c3c(F)ccc(O)c3F)s2)cc1C , result: 8.5

// half-life at 1 µM lookup, molecule = O=C(c1ccc(-c2ccc(O)c(Cl)c2)s1)c1cc(F)c(F)c(O)c1F , result: 11.3

// half-life at 1 µM lookup, molecule = O=C(c1ccc(-c2cccc3[nH]ccc23)s1)c1cc(F)c(F)c(O)c1F , result: 48.9

* * *

molecular target: rat 17β-HSD1 (Rattus norvegicus, UniProt P51657); construct: made in house; host or cells: HEK293 cells, transient transfection; 1,000 g supernatant of the cell lysate; assay: Inhibition of rat 17β-HSD1 (recombinant, HEK293 lysate); format: biochemical; conditions: Cmpd conc. 250 nM; read-out: % Inhibition r17β-HSD1
Sequence (P51657 whole entry): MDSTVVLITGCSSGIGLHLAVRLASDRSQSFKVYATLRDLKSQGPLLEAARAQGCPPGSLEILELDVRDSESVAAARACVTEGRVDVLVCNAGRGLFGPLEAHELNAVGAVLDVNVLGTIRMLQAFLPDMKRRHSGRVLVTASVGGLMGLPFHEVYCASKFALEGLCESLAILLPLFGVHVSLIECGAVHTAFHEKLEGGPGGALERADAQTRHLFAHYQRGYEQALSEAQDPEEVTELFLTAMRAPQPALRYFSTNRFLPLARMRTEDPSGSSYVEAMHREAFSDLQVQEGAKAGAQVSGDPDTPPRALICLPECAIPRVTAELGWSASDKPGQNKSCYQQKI
attributeMeasured: inhibition at […] (%)
Please state the figure in %; there is no need to write the unit.

// inhibition at […] lookup, compound = Cc1cc(-c2ccc(C(=O)c3c(F)ccc(O)c3F)s2)cc(C)c1O , result: 63

// inhibition at […] lookup, compound = O=C(c1ccc(-c2ccc(F)cc2F)s1)c1c(F)ccc(O)c1F , result: 63

// inhibition at […] lookup, compound = COc1c(Cl)cc(-c2ccc(C(=O)c3c(F)ccc(O)c3F)s2)cc1Cn1ccnn1 , result: 39

// inhibition at […] lookup, compound = O=C(c1ccc(-c2ccc(F)cc2F)s1)c1cccc(O)c1F [C, reference compound] , result: 35

// inhibition at […] lookup, compound = O=C(c1ccc(Br)s1)c1c(F)ccc(O)c1F , result: 5

// inhibition at […] lookup, compound = O=C(c1ccc(-c2cccc(NS(=O)(=O)c3ccccc3C(F)(F)F)c2)s1)c1cc(F)c(F)c(O)c1F , result: 41

// inhibition at […] lookup, compound = O=C(c1ccc(-c2ccc(F)cc2F)s1)c1cc(F)c(F)c(O)c1F , result: 58

// inhibition at […] lookup, compound = COc1ccc(-c2ccc(C(=O)c3c(F)ccc(O)c3F)s2)cc1S(=O)(=O)N1CCOCC1 , result: 26

// inhibition at […] lookup, compound = COc1c(C)cc(-c2ccc(C(=O)c3c(F)ccc(O)c3F)s2)cc1C , result: 39

// inhibition at […] lookup, compound = O=C(c1ccc(-c2cccc(NS(=O)(=O)c3ccc(Br)cc3OC(F)(F)F)c2)s1)c1cc(F)c(F)c(O)c1F , result: 50
